# Tested On: GFP-WRI1(58-240), WRINKLED1 DNA-binding domain (UniProt Q6X5Y6 58-240)
# Sequence (Q6X5Y6 58-240): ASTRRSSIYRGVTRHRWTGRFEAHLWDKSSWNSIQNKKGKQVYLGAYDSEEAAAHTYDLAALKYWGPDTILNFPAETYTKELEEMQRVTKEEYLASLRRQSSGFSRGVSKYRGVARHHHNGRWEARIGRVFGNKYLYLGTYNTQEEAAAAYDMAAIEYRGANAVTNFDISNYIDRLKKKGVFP
# Test Summary: MST
pKd: −log10 of the molar value.
The label depends only on pKd: condition met if it is at least 8, condition not met if it is smaller.

Task: Hello, I need to know if BADC3 AW box (-94/-67) (dsDNA) DNA 1: GTTGTGTCCTCGTTCATATCGTTATCGT DNA 2: ACGATAACGATATGAACGAGGACACAAC has measured pKd not below 8. Thanks!
Output: condition met

Task: Test whether the binder BADC2 AW box (-102/-75) (dsDNA) DNA 1: TCGTCTTCCTCGTTCGTATCGTTCACTC DNA 2: GAGTGAACGATACGAACGAGGAAGACGA records pKd of 8 or higher.
Output: condition met

Task: Form field: pKd at least 8? Entry: BCCP1 AW box (-67/-40) (dsDNA) DNA 1: TTGTGCTCTTTGGTTTCATCGAGAGAGA DNA 2: TCTCTCTCGATGAAACCAAAGAGCACAA
Output: condition not met

Task: # bool: pKd of BADC1 AW box (-169/-142) (dsDNA) DNA 1: CCTTCTTCTTTGGTAACTCCGTCCGCCG DNA 2: CGGCGGACGGAGTTACCAAAGAAGAAGG >= 8
Output: condition met

Task: Check if pKd >= 8 (inclusive). Item: BADC3m3 (dsDNA) DNA 1: GTTGTGTCCTCGTTTACATCGTTATCGT DNA 2: ACGATAACGATGTAAACGAGGACACAAC
Output: condition not met

Task: Does the reported pKd for BADC1m3 (dsDNA) DNA 1: CCTTCTTCTTTGGTGCCTCCGTCCGCCG DNA 2: CGGCGGACGGAGGCACCAAAGAAGAAGG fall at or above the 8 mark?
Output: condition not met

Task: Answer whether pKd of BADC2m3 (dsDNA) DNA 1: TCGTCTTCCTCGTTCACATCGTTCACTC DNA 2: GAGTGAACGATGTGAACGAGGAAGACGA is greater than or equal to 8.
Output: condition not met

Task: Dear colleague, could you confirm whether BCCP2 AW box1 (-36/-8) (dsDNA) DNA 1: TGGGTTTCTTCGTAAGCATCGAAATCAG DNA 2: CTGATTTCGATGCTTACGAAGAAACCCA has pKd at or above 8?
Output: condition met
